Biological target: T1, Monomeric monkey CD48-mmH (monkey)
T1 construct: Soluble monkey CD48 with a myc-myc-hexa-histidine C-terminal tag; the whole entry is the construct; also called mfCD48-mmH
T1 chain: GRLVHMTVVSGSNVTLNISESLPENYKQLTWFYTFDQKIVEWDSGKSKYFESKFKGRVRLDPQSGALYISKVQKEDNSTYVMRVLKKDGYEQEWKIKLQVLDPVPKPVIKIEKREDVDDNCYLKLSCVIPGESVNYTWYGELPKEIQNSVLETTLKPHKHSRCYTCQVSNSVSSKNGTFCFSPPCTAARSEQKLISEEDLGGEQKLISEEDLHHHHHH
Experiment: SPR (Biacore), antibody captured by anti-Fc, CD48 in solution, 37 C
Reported kon is given for each of the following binders.
Write the number in M⁻¹ s⁻¹ without appending the unit.

// worked examples, kon included
H4H1772P (antibody, human IgG4, V domains shown, Human IgG4 Fc (H4H)) VH: EVQLVESGGGLVQPGGSLRLSCAASGFTFSSYWMSWVRQAPGKGLEWVANIMRDGSEKYYVDSVKGRFTISRDNAKNSLYLQMNSLRGEDTAVYYCARERGFYTNYGNWFDPWGQGTLVTVSS VL: DIVMTQSPLSLTVTPGESASISCRSSQSLLHSYGYNSLDWYLQKPGQSPQFLIYLVSNRASGVPDRFSGSGSGTDFTLKISRVEAEDVGVYYCMQVLQTPYTFGQGTKLEIK ... 320000
H4H1771P (antibody, human IgG4, V domains shown, Human IgG4 Fc (H4H)) VH: QVQLVQSGTEVKKPGASVKVSCKVSGYTLIDLSIHWVRQAPGEGLEWMGGFDPEESETIYAQKFQGRVTMTEDTSTDTAYMELSSLRSEDTAVYYCVTEPIFGILIHESWGQGTLVTVSS VL: DIVMTQTPLSSPVTLGQPASISCRSSHSPVHSNGHTYLSWLQQRPGQPPRILIYKISRRFSGVPDRFSGSGAGTDFTLKISRVETEDVGIYYCMQASQFPWTFGQGTKVEIK ... 657000

Now for another entry.
What does the data say about its kon? Entry: H4H1774P (antibody, human IgG4, V domains shown, Human IgG4 Fc (H4H)) VH: QVQLVESGGGVVQPGRSLRLSCAASGFTFSNYGMHWVRQAPGKGLEWVAVIWYDESSKYYTDSVKGRFTISRDNSQNTLYLQMTSLRAEDTAVYYCARDRWTYSHYFEYWGQGTLVTVSS VL: DIQMTQSPSSVSASVGDRVTITCRASQGISSWVAWYQQKPGKAPKLLIYAASSLQSGVPSRFSGSGSGTDFTLTISSLQPEDFATYYCQQANSFPRTFGQGTKVEIK
197000
